The following molecules are listed with their measured Purity (%) at Day 3 values.
experiment: Effect of concentration on the stability of the solution (purity over time); conditions: 5 wt % in 50% ethanol, 25° C.
parameter: Purity (%) at Day 3

molecule="CC(C)OC(=O)C(N)Cc1ccccc1 (centres unmarked) [Isopropyl 2-amino-3-phenylpropanoate, reference compound]" result=98.5%
molecule="CC(C)OC(=O)c1ccccc1 [Isopropyl benzoate, reference compound]" result=98.7%
molecule="CC(C)(C)OC(=O)c1ccccc1 [t-Butyl benzoate, reference compound]" result=3.6%
molecule="CCOC(=O)c1ccccc1 [Ethyl benzoate, reference compound]" result=97.8%
molecule="CC(C)(C)OC(=O)C(N)Cc1ccccc1 (centres unmarked) [t-Butyl 2-amino-3-phenylpropanoate, reference compound]" result=94.8%

----------
test: Effect of temperature (and pH) on the stability of the solution (purity); assay type: physicochemical; settings: 7% solution in water, pH 3.0, day 21, 5° C.
parameter: Purity(%) at day 21 (5° C.)

molecule=CCN(CC)CCOC(=O)Cc1ccc(C(=O)c2ccc(C)cc2)n1C.Cl units_of_measure=% numeric_value=95.3
molecule=CCN(CC)CCOC(=O)CCc1ccc2cc(OC)ccc2c1.Cl units_of_measure=% numeric_value=97.4
molecule=CCN(CC)CCOC(=O)CCc1nc(-c2ccccc2)c(-c2ccccc2)o1.Cl units_of_measure=% numeric_value=96.9
molecule=CCN(CC)CCOC(=O)COC(=O)Cc1c(C)n(C(=O)c2ccc(Cl)cc2)c2ccc(OC)cc12.Cl units_of_measure=% numeric_value=98.0
molecule=CCN(CC)CCOC(=O)COc1nn(Cc2ccccc2)c2ccccc12.Cl units_of_measure=% numeric_value=96.8
molecule="CCN(CC)CCOC(=O)CC1=C(C)C(=Cc2ccc([S+](C)[O-])cc2)c2ccc(F)cc21.Cl (centres unmarked)" units_of_measure=% numeric_value=96.3
molecule=CCN(CC)CCOC(=O)Cc1c(C)n(C(=O)c2ccc(Cl)cc2)c2ccc(OC)cc12.Cl units_of_measure=% numeric_value=97.3
molecule="CCN(CC)CCOC(=O)C(C)c1ccc2oc(-c3ccc(Cl)cc3)nc2c1.Cl (centres unmarked)" units_of_measure=% numeric_value=97.5

----------
assay: Effect of concentration on the stability of the solution (purity over time); settings: 1 wt %; in water at 25° C.
parameter: Purity at Day 14 (%)

compound="CCN(CC)CCOC(=O)CC1=C(C)C(=Cc2ccc([S+](C)[O-])cc2)c2ccc(F)cc21.Cl (centres unmarked)" numeric_value=93.1
compound="CCN(CC)CCOC(=O)C(C)c1ccc2oc(-c3ccc(Cl)cc3)nc2c1.Cl (centres unmarked)" numeric_value=94.0
compound=CCN(CC)CCOC(=O)Cc1sc(-c2ccccc2)nc1-c1ccc(Cl)cc1.Cl numeric_value=92.9
compound="CCN(CC)CCOC(=O)[C@H](C)c1ccc2cc(OC)ccc2c1.Cl (racemic)" numeric_value=97.4
compound=CCN(CC)CCOC(=O)CCc1nc(-c2ccccc2)c(-c2ccccc2)o1.Cl numeric_value=88.9

----------
assay: Effect of pH value on the stability of the solution (purity); type: physicochemical; settings: day 14, pH 7.0, 7% in water, 25° C.
The following molecules are listed with their measured Purity(%) from day 0-14 values.
parameter: Purity(%) from day 0-14

item_smiles=CCN(CC)CCOC(=O)c1ccccc1OC(C)=O.O=C(O)c1ccccc1 units_of_measure=% numeric_value=56.0
item_smiles=CCN(CC)CCOC(=O)c1ccccc1OC(C)=O.O=C(O)/C=C\C(=O)O units_of_measure=% numeric_value=57.8
item_smiles=CC(O)C(=O)O.CCN(CC)CCOC(=O)c1ccccc1OC(C)=O units_of_measure=% numeric_value=55.1
item_smiles=CCCCC(=O)O.CCN(CC)CCOC(=O)c1ccccc1OC(C)=O units_of_measure=% numeric_value=52.5

----------
The following compounds are listed with their measured Purity at Day 7 values.
assay: Effect of concentration on the stability of the solution (purity over time); settings: 0.01 wt %; in water at 25° C.
parameter: Purity at Day 7 (%)

compound="CCN(CC)CCOC(=O)C(C)c1ccc2oc(-c3ccc(Cl)cc3)nc2c1.Cl (centres unmarked)" parameter="Purity at Day 7" numeric_value=73.9
compound=CCN(CC)CCOC(=O)Cc1ccc(C(=O)c2ccc(C)cc2)n1C.Cl parameter="Purity at Day 7" numeric_value=72.2
compound=CCN(CC)CCOC(=O)CCc1ccc2cc(OC)ccc2c1.Cl parameter="Purity at Day 7" numeric_value=73.9
compound=CCN(CC)CCOC(=O)Cc1c(C)n(C(=O)c2ccc(Cl)cc2)c2ccc(OC)cc12.Cl parameter="Purity at Day 7" numeric_value=72.9
compound="CCN(CC)CCOC(=O)CC1=C(C)C(=Cc2ccc([S+](C)[O-])cc2)c2ccc(F)cc21.Cl (centres unmarked)" parameter="Purity at Day 7" numeric_value=71.2
compound=CCN(CC)CCOC(=O)Cc1sc(-c2ccccc2)nc1-c1ccc(Cl)cc1.Cl parameter="Purity at Day 7" numeric_value=74.2
compound=CCN(CC)CCOC(=O)CCc1nc(-c2ccccc2)c(-c2ccccc2)o1.Cl parameter="Purity at Day 7" numeric_value=73.9
compound="CCN(CC)CCOC(=O)[C@H](C)c1ccc2cc(OC)ccc2c1.Cl (racemic)" parameter="Purity at Day 7" numeric_value=73.4

----------
experiment: Effect of concentration on the stability of the solution (purity over time); details: 15 wt %; in water at 25° C.
The following compounds are listed with their measured Purity at Day 7 values.
parameter: Purity at Day 7 (%)

compound=CCN(CC)CCOC(=O)Cc1sc(-c2ccccc2)nc1-c1ccc(Cl)cc1.Cl units_of_measure=% numeric_value=98.6
compound=CCN(CC)CCOC(=O)CCc1ccc2cc(OC)ccc2c1.Cl units_of_measure=% numeric_value=98.2
compound=CCN(CC)CCOC(=O)Cc1c(C)n(C(=O)c2ccc(Cl)cc2)c2ccc(OC)cc12.Cl units_of_measure=% numeric_value=98.2
compound="CCN(CC)CCOC(=O)CC1=C(C)C(=Cc2ccc([S+](C)[O-])cc2)c2ccc(F)cc21.Cl (stereo not shown)" units_of_measure=% numeric_value=97.4
compound=CCN(CC)CCOC(=O)Cc1ccc(C(=O)c2ccc(C)cc2)n1C.Cl units_of_measure=% numeric_value=97.6
compound="CCN(CC)CCOC(=O)C(C)c1ccc2oc(-c3ccc(Cl)cc3)nc2c1.Cl (stereo not shown)" units_of_measure=% numeric_value=98.3
compound=CCN(CC)CCOC(=O)CCc1nc(-c2ccccc2)c(-c2ccccc2)o1.Cl units_of_measure=% numeric_value=98.4

----------
assay: Effect of concentration on the stability of the solution (purity over time); settings: 10 wt %; in water at 25° C.
parameter: Purity at Day 21

compound="CCN(CC)CCOC(=O)CC1=C(C)C(=Cc2ccc([S+](C)[O-])cc2)c2ccc(F)cc21.Cl (centres unmarked)" result=97.0%
compound=CCN(CC)CCOC(=O)Cc1ccc(C(=O)c2ccc(C)cc2)n1C.Cl result=97.1%
compound=CCN(CC)CCOC(=O)CCc1ccc2cc(OC)ccc2c1.Cl result=98.0%
compound=CCN(CC)CCOC(=O)CCc1nc(-c2ccccc2)c(-c2ccccc2)o1.Cl result=97.8%
compound="CCN(CC)CCOC(=O)[C@H](C)c1ccc2cc(OC)ccc2c1.Cl (racemic)" result=97.4%
compound=CCN(CC)CCOC(=O)Cc1c(C)n(C(=O)c2ccc(Cl)cc2)c2ccc(OC)cc12.Cl result=98.0%
compound=CCN(CC)CCOC(=O)Cc1sc(-c2ccccc2)nc1-c1ccc(Cl)cc1.Cl result=98.1%
compound="CCN(CC)CCOC(=O)C(C)c1ccc2oc(-c3ccc(Cl)cc3)nc2c1.Cl (centres unmarked)" result=97.7%

----------
The following molecules are listed with their measured Purity (%) at day 21 (60° C.) values.
assay: Effect of temperature (and pH) on the stability of the solution (purity); type: physicochemical; conditions: 7% solution in water, pH 3.7, day 21, 60° C.
parameter: Purity (%) at day 21 (60° C.)

molecule="CCN(CC)CCOC(=O)C(C)c1ccc2oc(-c3ccc(Cl)cc3)nc2c1.Cl (stereo not drawn)" units_of_measure=% numeric_value=11.3
molecule=CCN(CC)CCOC(=O)COc1nn(Cc2ccccc2)c2ccccc12.Cl units_of_measure=% numeric_value=8.5
molecule=CCN(CC)CCOC(=O)COC(=O)Cc1c(C)n(C(=O)c2ccc(Cl)cc2)c2ccc(OC)cc12.Cl units_of_measure=% numeric_value=13.9
molecule=CCN(CC)CCOC(=O)CCc1nc(-c2ccccc2)c(-c2ccccc2)o1.Cl units_of_measure=% numeric_value=7.3
molecule="CCN(CC)CCOC(=O)CC1=C(C)C(=Cc2ccc([S+](C)[O-])cc2)c2ccc(F)cc21.Cl (stereo not drawn)" units_of_measure=% numeric_value=13.5
molecule=CCN(CC)CCOC(=O)Cc1c(C)n(C(=O)c2ccc(Cl)cc2)c2ccc(OC)cc12.Cl units_of_measure=% numeric_value=16.3
molecule=CCN(CC)CCOC(=O)Cc1ccc(C(=O)c2ccc(C)cc2)n1C.Cl units_of_measure=% numeric_value=11.5
molecule="CCN(CC)CCOC(=O)C(C)c1ccc(-c2ccccc2)c(F)c1.Cl (racemic)" units_of_measure=% numeric_value=16.2
molecule=CCN(CC)CCOC(=O)CCc1ccc2cc(OC)ccc2c1.Cl units_of_measure=% numeric_value=19.3
